- TARGET_SYSTEM: T1, IRF4 DBD K123R (Homo sapiens, UniProt Q15306 20-132, K123R)
- T1 sequence: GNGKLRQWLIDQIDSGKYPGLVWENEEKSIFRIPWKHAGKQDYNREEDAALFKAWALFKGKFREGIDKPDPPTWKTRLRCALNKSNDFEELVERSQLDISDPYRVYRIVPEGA
- ASSAY_NAME: FP; FP: PBS + 0.05% Tween20, 5 nM DNA, 1 h, room temperature; SPR: Biacore S200, SA chip, protein 0.1-4500 nM, running buffer not given in material; errors are SD
- RUN_PARAMETERS: protein: recombinant; tags: N-terminal His8-linker-His8-TEV, cleaved; label: 3' fluorescein (FAM); hairpin, TTTT loop
PROPERTY_LABEL: Kd (nM)
Please reply with the bare figure in nM and do not write the unit itself.

Query: Reported Kd for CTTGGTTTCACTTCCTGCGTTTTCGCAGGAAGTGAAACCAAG (structured_DNA) [IRE hairpin (FAM)] : what is it?
Response: 143
